These data points were gathered from paper PMC10812921.

# Lookup of reported binding signal keyed by entry
# Assay Target: POU2 (OCT2 POU domain);BOB1 (OBF1, OCA-B) (human;human, UniProt P09086;Q16633 175-386;1-256, |)
# Sequence 1: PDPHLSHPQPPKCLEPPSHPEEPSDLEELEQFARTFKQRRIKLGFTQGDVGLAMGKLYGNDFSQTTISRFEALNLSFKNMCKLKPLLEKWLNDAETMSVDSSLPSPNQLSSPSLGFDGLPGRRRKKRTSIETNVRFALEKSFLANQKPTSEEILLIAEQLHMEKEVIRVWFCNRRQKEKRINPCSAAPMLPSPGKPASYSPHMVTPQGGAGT
# Sequence 2: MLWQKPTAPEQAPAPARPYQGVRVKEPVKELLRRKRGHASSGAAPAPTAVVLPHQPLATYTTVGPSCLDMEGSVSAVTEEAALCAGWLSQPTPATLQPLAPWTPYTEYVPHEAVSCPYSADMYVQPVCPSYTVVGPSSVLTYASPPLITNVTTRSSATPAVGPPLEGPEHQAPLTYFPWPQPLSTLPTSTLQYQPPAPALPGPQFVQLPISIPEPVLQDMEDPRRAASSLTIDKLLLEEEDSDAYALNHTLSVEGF
# Assay Notes: EMSA-SELEX-seq; with BOB1 (ternary complex band); 20 mM Tris-HCl pH 7.6, 140 mM NaCl, 10% glycerol, 0.5 mM EDTA, 0.05% Triton X-100, 0.1 mg/mL BSA, 0.1 mg/mL poly(dI-dC), 5 mM DTT, room temperature, 20 min; high values mean tight binding
# Run Conditions: protein: recombinant;recombinant; copies: 1;1; dsDNA, one strand shown

- Sequence Data: "ATGGCAAT"
  binding signal: "0.0578 % of ANNNNAAN 8-mers"
- Sequence Data: "ATACGAAT"
  binding signal: "0.0759 % of ANNNNAAN 8-mers"
- Sequence Data: "AATTGAAC"
  binding signal: "0.052 % of ANNNNAAN 8-mers"
- Sequence Data: "ACCCTAAC"
  binding signal: "0.0157 % of ANNNNAAN 8-mers"
- Sequence Data: "ACTTGAAT"
  binding signal: "0.071 % of ANNNNAAN 8-mers"
- Sequence Data: "AGGCGAAC"
  binding signal: "0.0305 % of ANNNNAAN 8-mers"
- Sequence Data: "ATAGGAAT"
  binding signal: "0.106 % of ANNNNAAN 8-mers"
- Sequence Data: "ATCTTAAA"
  binding signal: "0.0636 % of ANNNNAAN 8-mers"
- Sequence Data: "AAAACAAC"
  binding signal: "0.0462 % of ANNNNAAN 8-mers"
- Sequence Data: "ACAAAAAG"
  binding signal: "0.0429 % of ANNNNAAN 8-mers"
- Sequence Data: "AGGTCAAG"
  binding signal: "0.0289 % of ANNNNAAN 8-mers"
